src = the DeepSol protein solubility set

- assay-method-text: soluble on expression in E. coli; label from the status in PepcDB or PDB records
readout-type: soluble on expression in E. coli

- polymer-sequence: "MGSDKIHHHHHHNSISDSEVHVMVKTFEGHHVNRLEVLKNTWASDVSRIEYCSDKEDPAIPTINLGVDNTDRGHCAKTWEIFRRFLGSSGNGAKWLVVADDDTLMNFKRLKQMLELYDSGDKIIIGERYGYGFSLNGDSGYDYPTGGSGMIFTRSAVESLLAQCPSCIANTDPDDMTIGICALTAGIPIVHESRLHQARPLDYAPEYIKYPISFHKFTDIDPISVYYEYLVELEEYN"
  readout-type: "soluble on expression in E. coli"
  recorded-value: "not soluble"
- polymer-sequence: "MDRVIEDKELGRLVVRDNVRAKRLVFRTKADAIYISIPLGVTMREVKEAIEKLRPRLLDSRQKLVRPLIDLNYRIETEYFKLSLVSGKRERFLAHSELGEMRIICPPTADFTDSNLQDWLRKVIEEALRRNAKIILPPRLYMLSEKHRLPYESVQINSSRGRWGSCSSRKKINLSYFLVLLPKHLIDYVLLHELCHTCEMNHGDRFWNLLNGLTDGKALELREELKRYKTEILEHHHHHH"
  readout-type: "soluble on expression in E. coli"
  recorded-value: "not soluble"
- polymer-sequence: "MAHHHHHHMIAAIKTPAFQERVRAAMSREPTPADAEAVMKRYEEVQADYFTNHYNAEAGGICSSASAGAESRGTGGAGGRAKSSQDASEALAQQVDDMNLQEASDAPKLDGVEIVEQLKNAVRVYKEKETVRLITELCLLIESQVTALPATVPALRHLYSNSVYGSSAMEHAQAASAQAGGGESVLPVAQPSPQVMSMMGMAMRTLNPRQRETLERVQRAMMNGSPPLPEDMQDMLLIQRQLGAFMQTMQRFGQMPSGRGCGSGGRGGCGGQGGQ"
  readout-type: "soluble on expression in E. coli"
  recorded-value: "soluble"
- polymer-sequence: "MGSDKIHHHHHHMLIVREFSNRFQQMSGMPINSNETKERLKAAGIDINSKQYRAVMSEMSRDGGGGYTTISAIKKRMSRYDKDGDWINPRTGLAGLLVTDKNCASKNRIVSISESIMDEMFESTKKEFFMENGVHNGDTTNRSEIYQKLYQQTEKNDRLAAGYTLEEYERQYWQAFTDAVKVADPKWEAGKPIMPGVLDRITSKSIDALLVKSGSQLIRKSFERMI"
  readout-type: "soluble on expression in E. coli"
  recorded-value: "not soluble"
- polymer-sequence: "MKVSQVFISAISVFGLATSVNAQNASNTTSNAAPALHAQNGQLLNAGVVGAAVGGALAFLI"
  readout-type: "soluble on expression in E. coli"
  recorded-value: "soluble"

Now examine the next entry.
// query soluble on expression in E. coli value for entry MSEGWNIAVLGATGAVGEALLETLAERQFPVGEIYALARNESAGEQLRFGGKTITVQDAAEFDWTQAQLAFFVAGKEATAAWVEEATNSGCLVIDSSGLFALEPDVPLVVPEVNPFVLTDYRNRNVIAVPDSLTSQLLAALKPLIDQGGLSRISVTSLISASAQGKKAVDALAGQSAKLLNGIPIDEEDFFGRQLAFNMLPLLPDSEGSVREERRIVDEVRKILQDEGLMISASVVQAPVFYGHAQMVNFEALRPLAAEEARDAFVQGEDIVLSEENEFPTQVGDASGTPHLSVGCVRNDYGMPEQVQFWSVADNVRFGGALMAVKIAEKLVQEYLY
soluble
